// values below are reported Human
Assay: Plasma protein binding, rapid equilibrium dialysis
Format: in vitro ADME, human
Settings: human, 4 h, 10 μM, pH 7.4
Numbered stars: 1 amine (or outer) side, 2 acyl side, 3 side chain; on linkers, the order of the positions; unused ones are H or OH. Bridge positions count the residues as written; N and C are the ends. Square brackets hold non-standard residues; d marks the D form. Peptide text beside a SMILES is read from it. * marks the point of attachment. Phe(3-CF3) = N[C@@H](Cc1cccc(C(F)(F)F)c1)C(=O)O; Piperazine(2S-CO,4-Me) = CN1CCN[C@H](C(=O)O)C1; Phe(3,5-F2) = N[C@@H](Cc1cc(F)cc(F)c1)C(=O)O; Phe(3,5-Me2) = Cc1cc(C)cc(C[C@H](N)C(=O)O)c1; Phe(3-Cl) = N[C@@H](Cc1cccc(Cl)c1)C(=O)O; Phe(3-OMe) = COc1cccc(C[C@H](N)C(=O)O)c1; Phe(3-Me) = Cc1cccc(C[C@H](N)C(=O)O)c1; X4 = O=C1CN([*:1])[C@H](C(=O)[*:2])CN1; NH(4-Cl-2-F-phenyl) = Fc1cc(Cl)ccc1N*; Pro(4R-Me) = C[C@H]1CN[C@H](C(=O)O)C1; Propanoyl(3-NMe2) = CN(C)CCC(=O)*; X1 = O=C([C@@H]1CSCCN1[*:1])[*:2]; Hyp = O=C(O)[C@@H]1C[C@@H](O)CN1; aThr = C[C@H](O)[C@H](N)C(=O)O; Pip = O=C(O)[C@@H]1CCCCN1; X3 = c1cc2c(cc1N*)OCCO2; CO = O=C([*:1])[*:2]; X2 = Fc1cc(N*)ccc1Cl

>  <COMPOUND>
Cc1cccc(C[C@H](NC(=O)Nc2ccc(Cl)cc2F)C(=O)N[C@@H]2C(=O)N3C[C@H](OC(=O)CCN(C)C)C[C@H]3C(=O)N3CCCC[C@H]3C(=O)N[C@@H](C)C(=O)N3C[C@H](C)C[C@H]3C(=O)O[C@H]2C)c1 [Compound 46] ({NH(4-Cl-2-F-phenyl)-CO}-[Phe(3-Me)][aThr][Hyp](Propanoyl(3-NMe2))[Pip]A[Pro(4R-Me)]; ester 2-C)

>  <Human / %>
99.5

$$$$
>  <COMPOUND>
Cc1cc(C)cc(C[C@H](NC(=O)Nc2ccc(Cl)cc2F)C(=O)N[C@@H]2C(=O)N3CCC[C@H]3C(=O)N3CCCC[C@H]3C(=O)N[C@@H](C)C(=O)N3C[C@H](C)C[C@H]3C(=O)O[C@H]2C)c1 [Compound 4] ({NH(4-Cl-2-F-phenyl)-CO}-[Phe(3,5-Me2)][aThr]P[Pip]A[Pro(4R-Me)]; ester 2-C)

>  <Human / %>
99.8

$$$$
>  <COMPOUND>
Cc1cccc(C[C@H](NC(=O)Nc2ccc3c(c2)OCCO3)C(=O)N[C@H]2COC(=O)[C@@H]3C[C@@H](C)CN3C(=O)[C@H](C)NC(=O)[C@@H]3CCCCN3C(=O)[C@@H]3CCCN3C2=O)c1 [Compound 22]

>  <Human / %>
97.1

$$$$
>  <COMPOUND>
C[C@@H]1C[C@H]2C(=O)O[C@@H](C)[C@H](NC(=O)[C@H](Cc3cccc(Cl)c3)NC(=O)Nc3ccc(Cl)cc3F)C(=O)N3CCC[C@H]3C(=O)N3CCN(C)C[C@H]3C(=O)N[C@@H](C)C(=O)N2C1 [Compound 33] ({NH(4-Cl-2-F-phenyl)-CO}-[Phe(3-Cl)][aThr]P[Piperazine(2S-CO,4-Me)]A[Pro(4R-Me)]; ester 2-C)

>  <Human / %>
99.1

$$$$
>  <COMPOUND>
Cc1cccc(C[C@H](NC(=O)Nc2ccc(Cl)cc2F)C(=O)N[C@H]2COC(=O)[C@@H]3C[C@@H](C)CN3C(=O)[C@H](C)NC(=O)[C@@H]3CN(C)CCN3C(=O)[C@@H]3CCCN3C2=O)c1 [Compound 13] ({NH(4-Cl-2-F-phenyl)-CO}-[Phe(3-Me)]SP[Piperazine(2S-CO,4-Me)]A[Pro(4R-Me)]; ester 2-C)

>  <Human / %>
97.0

$$$$
>  <COMPOUND>
Cc1cccc(C[C@H](NC(=O)Nc2ccc3c(c2)OCCO3)C(=O)N[C@@H]2C(=O)N3C[C@H](O)C[C@H]3C(=O)N3CCCC[C@H]3C(=O)N[C@@H](C)C(=O)N3C[C@H](C)C[C@H]3C(=O)O[C@H]2C)c1 [Compound 28] ({X3-CO}-[Phe(3-Me)][aThr][Hyp][Pip]A[Pro(4R-Me)]; ester 2-C)

>  <Human / %>
92.9

$$$$
>  <COMPOUND>
C[C@@H]1C[C@H]2C(=O)OC[C@H](NC(=O)[C@H](Cc3cccc(C(F)(F)F)c3)NC(=O)Nc3ccc(Cl)cc3F)C(=O)N3CCC[C@H]3C(=O)N3CCN(C)C[C@H]3C(=O)N[C@@H](C)C(=O)N2C1 [Compound 18] ({NH(4-Cl-2-F-phenyl)-CO}-[Phe(3-CF3)]SP[Piperazine(2S-CO,4-Me)]A[Pro(4R-Me)]; ester 2-C)

>  <Human / %>
99.0

$$$$
>  <COMPOUND>
Cc1cccc(C[C@H](NC(=O)Nc2ccc(Cl)cc2F)C(=O)N[C@@H]2C(=O)N3CCC[C@H]3C(=O)N3CC(=O)NC[C@H]3C(=O)N[C@@H](C)C(=O)N3C[C@H](C)C[C@H]3C(=O)O[C@H]2C)c1 [Compound 20] ({NH(4-Cl-2-F-phenyl)-CO}-[Phe(3-Me)][aThr]P[X4]A[Pro(4R-Me)]; ester 2-C)

>  <Human / %>
97.5

$$$$
>  <COMPOUND>
Cc1cccc(C[C@H](NC(=O)Nc2ccc(Cl)cc2F)C(=O)N[C@@H]2C(=O)N3C[C@H](O)C[C@H]3C(=O)N3CCN(C)C[C@H]3C(=O)N[C@@H](C)C(=O)N3C[C@H](C)C[C@H]3C(=O)O[C@H]2C)c1 [Compound 31] ({NH(4-Cl-2-F-phenyl)-CO}-[Phe(3-Me)][aThr][Hyp][Piperazine(2S-CO,4-Me)]A[Pro(4R-Me)]; ester 2-C)

>  <Human / %>
97.9

$$$$
>  <COMPOUND>
COc1cccc(C[C@H](NC(=O)Nc2ccc(Cl)cc2F)C(=O)N[C@H]2COC(=O)[C@@H]3C[C@@H](C)CN3C(=O)[C@H](C)NC(=O)[C@@H]3CN(C)CCN3C(=O)[C@@H]3CCCN3C2=O)c1 [Compound 19] ({NH(4-Cl-2-F-phenyl)-CO}-[Phe(3-OMe)]SP[Piperazine(2S-CO,4-Me)]A[Pro(4R-Me)]; ester 2-C)

>  <Human / %>
98.9

$$$$
>  <COMPOUND>
Cc1cccc(C[C@H](NC(=O)Nc2ccc(Cl)c(F)c2)C(=O)N[C@@H]2C(=O)N3CCC[C@H]3C(=O)N3CCCC[C@H]3C(=O)N[C@@H](C)C(=O)N3C[C@H](C)C[C@H]3C(=O)O[C@H]2C)c1 [Compound 35] ({X2-CO}-[Phe(3-Me)][aThr]P[Pip]A[Pro(4R-Me)]; ester 2-C)

>  <Human / %>
99.9

$$$$
>  <COMPOUND>
C[C@@H]1C[C@H]2C(=O)OC[C@H](NC(=O)[C@H](Cc3cc(F)cc(F)c3)NC(=O)Nc3ccc(Cl)cc3F)C(=O)N3CCC[C@H]3C(=O)N3CCN(C)C[C@H]3C(=O)N[C@@H](C)C(=O)N2C1 [Compound 34] ({NH(4-Cl-2-F-phenyl)-CO}-[Phe(3,5-F2)]SP[Piperazine(2S-CO,4-Me)]A[Pro(4R-Me)]; ester 2-C)

>  <Human / %>
96.5

$$$$
>  <COMPOUND>
Cc1cccc(C[C@H](NC(=O)Nc2ccc(Cl)cc2F)C(=O)N[C@H]2COC(=O)[C@@H]3C[C@@H](C)CN3C(=O)[C@H](C)NC(=O)[C@@H]3CCCCN3C(=O)[C@@H]3C[C@@H](O)CN3C2=O)c1 [Compound 10]

>  <Human / %>
99.7

$$$$
>  <COMPOUND>
Cc1cccc(C[C@H](NC(=O)Nc2ccc(Cl)cc2F)C(=O)N[C@@H]2C(=O)N3CCC[C@H]3C(=O)N3CCSC[C@H]3C(=O)N[C@@H](C)C(=O)N3C[C@H](C)C[C@H]3C(=O)O[C@H]2C)c1 [Compound 38] ({NH(4-Cl-2-F-phenyl)-CO}-[Phe(3-Me)][aThr]P[X1]A[Pro(4R-Me)]; ester 2-C)

>  <Human / %>
99.5

$$$$

---

Experiment: Plasma protein binding, rapid equilibrium dialysis
Format: in vitro ADME, human
Details: plasma binding, % Bound, human plasma, 10 μM
Numbered stars: 1 amine (or outer) side, 2 acyl side, 3 side chain; on linkers, the order of the positions; unused ones are H or OH. Bridge positions count the residues as written; N and C are the ends. Square brackets hold non-standard residues; d marks the D form. Peptide text beside a SMILES is read from it. * marks the point of attachment. X5 = O=C([C@@H]1C[C@@H](OP(=O)(O)O)CN1[*:1])[*:2]; Piperazine(2S-CO,4-Me) = CN1CCN[C@H](C(=O)O)C1; Phe(3,5-Me2) = Cc1cc(C)cc(C[C@H](N)C(=O)O)c1; Phe(3-Me) = Cc1cccc(C[C@H](N)C(=O)O)c1; Pro(4S-Me) = C[C@@H]1CN[C@H](C(=O)O)C1; NH(4-Cl-2-F-phenyl) = Fc1cc(Cl)ccc1N*; Pro(4R-Me) = C[C@H]1CN[C@H](C(=O)O)C1; X1 = O=C([C@@H]1CSCCN1[*:1])[*:2]; Hyp = O=C(O)[C@@H]1C[C@@H](O)CN1; NH(4-Me-phenyl) = Cc1ccc(N*)cc1; aThr = C[C@H](O)[C@H](N)C(=O)O; Pip = O=C(O)[C@@H]1CCCCN1; 4Abz = Nc1ccc(C(=O)O)cc1; CO = O=C([*:1])[*:2]
// values below are reported Human
READOUT LABEL: Human (%)

>  <COMPOUND>
Cc1ccc(NC(=O)N[C@@H](Cc2cccc(C)c2)C(=O)N[C@@H]2C(=O)N3C[C@H](O)C[C@H]3C(=O)N3CCSC[C@H]3C(=O)N[C@@H](C)C(=O)N3C[C@H](C)C[C@H]3C(=O)O[C@H]2C)cc1 [Compound 42] ({NH(4-Me-phenyl)-CO}-[Phe(3-Me)][aThr][Hyp][X1]A[Pro(4R-Me)]; ester 2-C)

>  <TEST VALUE>
98.1

$$$$
>  <COMPOUND>
Cc1ccc(NC(=O)N[C@@H](Cc2cccc(C)c2)C(=O)N[C@@H]2C(=O)N3C[C@H](O)C[C@H]3C(=O)N3CCCC[C@H]3C(=O)N[C@@H](C)C(=O)N3C[C@H](C)C[C@H]3C(=O)O[C@H]2C)cc1 [Compound 26] ({NH(4-Me-phenyl)-CO}-[Phe(3-Me)][aThr][Hyp][Pip]A[Pro(4R-Me)]; ester 2-C)

>  <TEST VALUE>
98.8

$$$$
>  <COMPOUND>
CCOC(=O)c1ccc(NC(=O)N[C@@H](Cc2cccc(C)c2)C(=O)N[C@@H]2C(=O)N3C[C@H](O)C[C@H]3C(=O)N3CCCC[C@H]3C(=O)N[C@@H](C)C(=O)N3C[C@H](C)C[C@H]3C(=O)O[C@H]2C)cc1 [Compound 36] ({OEt-4Abz-CO}-[Phe(3-Me)][aThr][Hyp][Pip]A[Pro(4R-Me)]; ester 2-C)

>  <TEST VALUE>
98.3

$$$$
>  <COMPOUND>
Cc1cccc(C[C@H](NC(=O)Nc2ccc(Cl)cc2F)C(=O)N[C@@H]2C(=O)N3C[C@H](OP(=O)(O)O)C[C@H]3C(=O)N3CCCC[C@H]3C(=O)N[C@@H](C)C(=O)N3C[C@H](C)C[C@H]3C(=O)O[C@H]2C)c1 [Compound 29] ({NH(4-Cl-2-F-phenyl)-CO}-[Phe(3-Me)][aThr][X5][Pip]A[Pro(4R-Me)]; ester 2-C)

>  <TEST VALUE>
98.8

$$$$
>  <COMPOUND>
Cc1ccc(NC(=O)N[C@@H](Cc2cc(C)cc(C)c2)C(=O)N[C@@H]2C(=O)N3CCC[C@H]3C(=O)N3CCCC[C@H]3C(=O)N[C@@H](C)C(=O)N3C[C@H](C)C[C@H]3C(=O)O[C@H]2C)cc1 [Compound 2] ({NH(4-Me-phenyl)-CO}-[Phe(3,5-Me2)][aThr]P[Pip]A[Pro(4R-Me)]; ester 2-C)

>  <TEST VALUE>
99.3

$$$$
>  <COMPOUND>
Cc1ccc(NC(=O)N[C@@H](Cc2cccc(C)c2)C(=O)N[C@@H]2C(=O)N3C[C@H](O)C[C@H]3C(=O)N3CCN(C)C[C@H]3C(=O)N[C@@H](C)C(=O)N3C[C@H](C)C[C@H]3C(=O)O[C@H]2C)cc1 [Compound 30] ({NH(4-Me-phenyl)-CO}-[Phe(3-Me)][aThr][Hyp][Piperazine(2S-CO,4-Me)]A[Pro(4R-Me)]; ester 2-C)

>  <TEST VALUE>
94.8

$$$$
>  <COMPOUND>
Cc1ccc(NC(=O)N[C@@H](Cc2cccc(C)c2)C(=O)N[C@H]2COC(=O)[C@@H]3CCCN3C(=O)[C@H](C)NC(=O)[C@@H]3CCCCN3C(=O)[C@@H]3C[C@@H](O)CN3C2=O)cc1

>  <TEST VALUE>
98.7

$$$$
>  <COMPOUND>
Cc1ccc(NC(=O)N[C@@H](Cc2cccc(C)c2)C(=O)N[C@@H]2C(=O)N3CCC[C@H]3C(=O)N3CCCC[C@H]3C(=O)N[C@@H](C)C(=O)N3C[C@@H](C)C[C@H]3C(=O)O[C@H]2C)cc1 [Compound 45] ({NH(4-Me-phenyl)-CO}-[Phe(3-Me)][aThr]P[Pip]A[Pro(4S-Me)]; ester 2-C)

>  <TEST VALUE>
97.3

$$$$
